molecular target: Melanocortin receptor 3 (Mus musculus); test: Functional activity at the mouse melanocortin 3 receptor
Sequence (P33033 whole entry): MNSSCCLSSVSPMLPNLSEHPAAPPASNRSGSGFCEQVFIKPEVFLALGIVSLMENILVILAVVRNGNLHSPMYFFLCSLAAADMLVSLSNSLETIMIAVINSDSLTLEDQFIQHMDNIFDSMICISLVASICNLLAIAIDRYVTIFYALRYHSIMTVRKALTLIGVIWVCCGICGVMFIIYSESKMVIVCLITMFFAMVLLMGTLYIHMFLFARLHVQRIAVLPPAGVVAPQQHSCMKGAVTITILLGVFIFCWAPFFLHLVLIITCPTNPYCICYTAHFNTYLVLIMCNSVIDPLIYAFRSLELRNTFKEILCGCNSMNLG
Where a SMILES comes first, the peptide text is derived from it.
Field: label. Allowed values: yes (EC50 < 0.3 nM) or no (EC50 >= 0.3 nM).

Examples from the recorded data:
| molecule | class |
| --- | --- |
| CC(=O)N[C@@H](Cc1ccccc1)C(=O)N[C@@H](CCCNC(=N)N)C(=O)N[C@@H](Cc1c[nH]c2ccccc12)C(N)=O (Ac-Phe-Arg-Trp-NH2) | no |
| CC(=O)N[C@@H](CCC(=O)O)C(=O)N[C@@H](Cc1c[nH]cn1)C(=O)N[C@H](Cc1ccccc1)C(=O)N[C@@H](CCCN=C(N)N)C(=O)N[C@@H](Cc1c[nH]c2ccccc12)C(N)=O | no |

Decide: EC50 of CC(=O)N[C@H](Cc1ccccc1)C(=O)N[C@@H](CCCN=C(N)N)C(=O)N[C@H](Cc1c[nH]c2ccccc12)C(N)=O strictly below 0.3 nM?
no

Lookup CCCC[C@H](NC(C)=O)C(=O)N[C@@H](CCC(=O)O)C(=O)N[C@@H](Cc1c[nH]cn1)C(=O)N[C@H](Cc1ccccc1)C(=O)N[C@@H](CCCN=C(N)N)C(=O)N[C@@H](Cc1c[nH]c2ccccc12)C(=O)NCC(N)=O
no

Lookup CCCC[C@H](NC(C)=O)C(=O)N[C@@H](CCC(=O)O)C(=O)N[C@@H](Cc1c[nH]cn1)C(=O)N[C@H](Cc1ccccc1)C(=O)N[C@@H](CCCN=C(N)N)C(=O)N[C@@H](Cc1c[nH]c2ccccc12)C(N)=O
yes

Lookup CC(=O)N[C@@H](Cc1c[nH]cn1)C(=O)N[C@H](Cc1ccccc1)C(=O)N[C@@H](CCCN=C(N)N)C(=O)N[C@@H](Cc1c[nH]c2ccccc12)C(=O)NCC(=O)N[C@@H](CCCCN)C(=O)N1CCC[C@H]1C(=O)N[C@H](C(N)=O)C(C)C
no

Lookup CCCC[C@H](NC(=O)[C@H](CO)NC(=O)[C@H](Cc1ccc(O)cc1)NC(=O)[C@H](CO)NC(C)=O)C(=O)N[C@@H](CCC(=O)O)C(=O)N[C@@H](Cc1cnc[nH]1)C(=O)N[C@H](Cc1ccccc1)C(=O)N[C@@H](CCCNC(=N)N)C(=O)N[C@@H](Cc1c[nH]c2ccccc12)C(N)=O
yes

Lookup CCCC[C@H](NC(=O)[C@H](CO)NC(=O)[C@H](Cc1ccc(O)cc1)NC(=O)[C@H](CO)NC(C)=O)C(=O)N[C@@H](CCC(=O)O)C(=O)N[C@@H](Cc1c[nH]cn1)C(=O)N[C@H](Cc1ccccc1)C(=O)N[C@@H](CCCN=C(N)N)C(=O)N[C@@H](Cc1c[nH]c2ccccc12)C(=O)NCC(=O)N[C@@H](CCCCN)C(N)=O
yes

Lookup CCCC[C@H](NC(C)=O)C(=O)N[C@@H](CCC(=O)O)C(=O)N[C@@H](Cc1cnc[nH]1)C(=O)N[C@H](Cc1ccccc1)C(=O)N[C@@H](CCCNC(=N)N)C(=O)N[C@@H](Cc1c[nH]c2ccccc12)C(=O)NCC(=O)N[C@@H](CCCCN)C(=O)N1CCC[C@H]1C(=O)N[C@H](C(N)=O)C(C)C
yes

====

target: Melanocortin receptor 4 (Mus musculus, UniProt P56450); test: Functional activity at the mouse melanocortin 4 receptor
Sequence (P56450 whole entry): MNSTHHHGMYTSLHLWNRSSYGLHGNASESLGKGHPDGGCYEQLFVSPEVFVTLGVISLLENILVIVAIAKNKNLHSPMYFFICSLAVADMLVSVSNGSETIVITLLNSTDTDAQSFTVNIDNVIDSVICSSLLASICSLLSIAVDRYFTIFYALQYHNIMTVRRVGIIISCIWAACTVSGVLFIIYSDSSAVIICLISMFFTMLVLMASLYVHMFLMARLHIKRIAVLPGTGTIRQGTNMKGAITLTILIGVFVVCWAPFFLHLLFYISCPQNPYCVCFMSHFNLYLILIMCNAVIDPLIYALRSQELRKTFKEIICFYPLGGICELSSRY
observable: EC50 (nM)
Numbers only, in nM.

# count of solved cases: 4
| smiles_entry | subject_of_test | units | numeric_result |
| --- | --- | --- | --- |
| CC(=O)N[C@@H](Cc1c[nH]cn1)C(=O)N[C@@H](Cc1ccccc1)C(=O)N[C@@H](CCCN=C(N)N)C(=O)N[C@H](Cc1c[nH]c2ccccc12)C(N)=O | Melanocortin receptor 4 (Mus musculus, UniProt P56450) | nM | 6620 |
| CCCC[C@H](NC(C)=O)C(=O)N[C@@H](CCC(=O)O)C(=O)N[C@@H](Cc1c[nH]cn1)C(=O)N[C@H](Cc1ccccc1)C(=O)N[C@@H](CCCN=C(N)N)C(=O)N[C@@H](Cc1c[nH]c2ccccc12)C(N)=O | Melanocortin receptor 4 (Mus musculus, UniProt P56450) | nM | 0.45 |
| CC(=O)N[C@@H](Cc1cnc[nH]1)C(=O)N[C@H](Cc1ccccc1)C(=O)N[C@@H](CCCNC(=N)N)C(=O)N[C@H](Cc1c[nH]c2ccccc12)C(N)=O | Melanocortin receptor 4 (Mus musculus, UniProt P56450) | nM | 154 |
| CCCC[C@H](NC(=O)[C@H](CO)NC(=O)[C@H](Cc1ccc(O)cc1)NC(=O)[C@H](CO)NC(C)=O)C(=O)N[C@@H](CCC(=O)O)C(=O)N[C@@H](Cc1cnc[nH]1)C(=O)N[C@H](Cc1ccccc1)C(=O)N[C@@H](CCCNC(=N)N)C(=O)N[C@@H](Cc1c[nH]c2ccccc12)C(N)=O | Melanocortin receptor 4 (Mus musculus, UniProt P56450) | nM | 0.78 |

Any idea what its EC50 is? The compound is CCCC[C@H](NC(C)=O)C(=O)N[C@@H](CCC(=O)O)C(=O)N[C@@H](Cc1c[nH]cn1)C(=O)N[C@H](Cc1ccccc1)C(=O)N[C@@H](CCCN=C(N)N)C(=O)N[C@@H](Cc1c[nH]c2ccccc12)C(=O)NCC(N)=O
0.94

====

target: Melanocortin receptor 4 (Mus musculus); experiment: Functional activity at the mouse melanocortin 4 receptor
Where a SMILES comes first, the peptide text is derived from it. [ ]: non-standard residue; d: D form.
observable: EC50 (µM)
One number for each entry, in µM.

| compound | observable | units | numeric_result |
| --- | --- | --- | --- |
| CC(=O)N[C@H](Cc1ccccc1)C(=O)N[C@@H](CCCN=C(N)N)C(=O)N[C@@H](Cc1c[nH]c2ccccc12)C(N)=O (Ac-[dF]-Arg-Trp-NH2) | EC50 | µM | 2.32 |

# map each compound to its EC50
1. CC(=O)N[C@@H](Cc1c[nH]cn1)C(=O)N[C@@H](Cc1ccccc1)C(=O)N[C@@H](CCCN=C(N)N)C(=O)N[C@@H](Cc1c[nH]c2ccccc12)C(N)=O
2. CCCC[C@H](NC(=O)[C@H](CO)NC(=O)[C@H](Cc1ccc(O)cc1)NC(=O)[C@H](CO)NC(C)=O)C(=O)N[C@@H](CCC(=O)O)C(=O)N[C@@H](Cc1c[nH]cn1)C(=O)N[C@H](Cc1ccccc1)C(=O)N[C@@H](CCCN=C(N)N)C(=O)N[C@@H](Cc1c[nH]c2ccccc12)C(=O)NCC(=O)N[C@@H](CCCCN)C(N)=O
3. CC(=O)N[C@H](Cc1ccccc1)C(=O)N[C@@H](CCCN=C(N)N)C(=O)N[C@H](Cc1c[nH]c2ccccc12)C(N)=O

1. 2.11
2. 0.00044
3. 11.2

# map each compound to its EC50
1. CC(=O)N[C@@H](Cc1cnc[nH]1)C(=O)N[C@H](Cc1ccccc1)C(=O)N[C@@H](CCCN=C(N)N)C(=O)N[C@@H](Cc1c[nH]c2ccccc12)C(N)=O
2. CC(=O)N[C@@H](Cc1c[nH]cn1)C(=O)N[C@H](Cc1ccccc1)C(=O)N[C@@H](CCCN=C(N)N)C(=O)N[C@@H](Cc1c[nH]c2ccccc12)C(=O)NCC(=O)N[C@@H](CCCCN)C(=O)N1CCC[C@H]1C(=O)N[C@H](C(N)=O)C(C)C
3. CC(=O)N[C@@H](CCC(=O)O)C(=O)N[C@@H](Cc1c[nH]cn1)C(=O)N[C@H](Cc1ccccc1)C(=O)N[C@@H](CCCN=C(N)N)C(=O)N[C@@H](Cc1c[nH]c2ccccc12)C(N)=O

1. 0.0102
2. 0.00045
3. 0.00431

Kindly state the measured EC50 obtained for CCCC[C@H](NC(C)=O)C(=O)N[C@@H](CCC(=O)O)C(=O)N[C@@H](Cc1cnc[nH]1)C(=O)N[C@H](Cc1ccccc1)C(=O)N[C@@H](CCCNC(=N)N)C(=O)N[C@@H](Cc1c[nH]c2ccccc12)C(=O)NCC(=O)N[C@@H](CCCCN)C(=O)N1CCC[C@H]1C(=O)N[C@H](C(N)=O)C(C)C with Melanocortin receptor 4 (Mus musculus).
0.00032

====

biological target: Melanocortin receptor 5 (Mus musculus, UniProt P41149); experiment: Functional activity at the mouse melanocortin 5 receptor
Sequence (P41149 whole entry): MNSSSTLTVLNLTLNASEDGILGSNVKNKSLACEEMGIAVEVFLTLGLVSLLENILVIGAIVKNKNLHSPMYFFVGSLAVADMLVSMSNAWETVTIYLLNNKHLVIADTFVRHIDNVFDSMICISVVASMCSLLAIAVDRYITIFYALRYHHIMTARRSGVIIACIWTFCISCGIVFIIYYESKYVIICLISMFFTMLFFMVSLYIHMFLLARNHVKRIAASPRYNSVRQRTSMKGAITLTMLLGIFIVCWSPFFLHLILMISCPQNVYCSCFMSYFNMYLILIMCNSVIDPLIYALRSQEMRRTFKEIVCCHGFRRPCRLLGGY
Give measured EC50 for each item. Keep answers brief.
One number for each entry, in nM.

# count of solved cases: 4
| smiles_entry | EC50 (nM) |
| --- | --- |
| CC(=O)N[C@H](Cc1ccccc1)C(=O)N[C@@H](CCCN=C(N)N)C(=O)N[C@H](Cc1c[nH]c2ccccc12)C(N)=O | 6880 |
| CCCC[C@H](NC(C)=O)C(=O)N[C@@H](CCC(=O)O)C(=O)N[C@@H](Cc1c[nH]cn1)C(=O)N[C@H](Cc1ccccc1)C(=O)N[C@@H](CCCN=C(N)N)C(=O)N[C@@H](Cc1c[nH]c2ccccc12)C(N)=O | 0.39 |
| CC(=O)N[C@@H](Cc1cnc[nH]1)C(=O)N[C@H](Cc1ccccc1)C(=O)N[C@@H](CCCNC(=N)N)C(=O)N[C@H](Cc1c[nH]c2ccccc12)C(N)=O | 61.3 |
| CCCC[C@H](NC(C)=O)C(=O)N[C@@H](CCC(=O)O)C(=O)N[C@@H](Cc1c[nH]cn1)C(=O)N[C@H](Cc1ccccc1)C(=O)N[C@@H](CCCN=C(N)N)C(=O)N[C@@H](Cc1c[nH]c2ccccc12)C(=O)NCC(N)=O | 0.59 |

Any idea what its EC50 is? The compound is CC(=O)N[C@@H](Cc1c[nH]cn1)C(=O)N[C@H](Cc1ccccc1)C(=O)N[C@@H](CCCN=C(N)N)C(=O)N[C@@H](Cc1c[nH]c2ccccc12)C(=O)NCC(=O)N[C@@H](CCCCN)C(=O)N1CCC[C@H]1C(=O)N[C@H](C(N)=O)C(C)C
0.17
